Test system: HT-29
Experiment: Growth inhibition of human HT-29 cells after 72 hrs by SRB assay
Assay type: functional
Details: HT-29, 72 h
recorded_metric: GI50 (µM)
Give your result in µM as a bare value.

INPUT: // GI50 lookup, key: COc1cc([C@@H]2c3cc4c(cc3/C(=C(\c3ccccc3)C(C)C)[C@H]3COC(=O)[C@@H]23)OCO4)cc(OC)c1OC
OUTPUT: 11.4

INPUT: Same read-out for COc1cc([C@@H]2c3cc4c(cc3[C@](O)(C(O)(c3ccccc3)c3ccccc3)[C@H]3COC(=O)[C@H]23)OCO4)cc(OC)c1OC ?
OUTPUT: 0.281

INPUT: Same read-out for COc1cc([C@@H]2c3cc4c(cc3[C@](O)([C@@](C)(O)C(C)C)[C@H]3COC(=O)[C@H]23)OCO4)cc(OC)c1OC ?
OUTPUT: 1.73

INPUT: Same read-out for COc1cc([C@@H]2c3cc4c(cc3/C(=C(/C)C(C)C)[C@H]3COC(=O)[C@@H]23)OCO4)cc(OC)c1OC ?
OUTPUT: 10.2

INPUT: Same read-out for COc1cc([C@@H]2c3cc4c(cc3[C@](O)(C(C)(C)O)[C@H]3COC(=O)[C@H]23)OCO4)cc(OC)c1OC ?
OUTPUT: 0.598

INPUT: Same read-out for COc1cc([C@@H]2c3cc4c(cc3[C@](O)(C3(O)CCCCC3)[C@H]3COC(=O)[C@H]23)OCO4)cc(OC)c1OC ?
OUTPUT: 0.0975

The record that follows has no GI50 shown yet.
INPUT: // GI50 lookup, key: COc1cc([C@@H]2c3cc4c(cc3[C@@](O)(C3(O)CCCC3)[C@H]3COC(=O)[C@H]23)OCO4)cc(OC)c1OC
OUTPUT: 2.72

---

Tested on: HT-29
Assay: Growth inhibition of human HT-29 cells after 72 hrs by SRB assay
Assay type: functional
Details: HT-29, 72 h
recorded_metric: GI50 (nM)
Give your result in nM as a bare value.

Known results for compounds:
INPUT: Short answer please: GI50, HT-29, entry CCC[C@@H](O)[C@@]1(O)c2cc3c(cc2[C@@H](c2cc(OC)c(OC)c(OC)c2)[C@H]2C(=O)OC[C@@H]21)OCO3
OUTPUT: 404

INPUT: Same read-out for COc1cc([C@@H]2c3cc4c(cc3[C@](O)(C3(O)CCCC3)[C@H]3COC(=O)[C@H]23)OCO4)cc(OC)c1OC ?
OUTPUT: 451

INPUT: Same read-out for COc1cc([C@@H]2c3cc4c(cc3[C@@]3(OC(C)(C)O[C@@H]3C)[C@H]3COC(=O)[C@H]23)OCO4)cc(OC)c1OC ?
OUTPUT: 5230

The record that follows has no GI50 shown yet.
INPUT: Short answer please: GI50, HT-29, entry COc1cc([C@@H]2c3cc4c(cc3[C@](O)([C@H](O)C3CC=CCC3)[C@H]3COC(=O)[C@H]23)OCO4)cc(OC)c1OC (some centres undefined)
OUTPUT: 2510

---

System: HT-29
Assay: Growth inhibition of human HT-29 cells after 72 hrs by SRB assay
Assay type: functional
Conditions: HT-29, 72 h
# log10 GI50 listing for each entry below
The base-10 logarithm of GI50, taken with GI50 in nM, is what appears here.

Known results for compounds:
INPUT: // log10 GI50 lookup, key: COc1cc([C@@H]2c3cc4c(cc3[C@H](C(C)C)[C@H]3COC(=O)[C@@H]23)OCO4)cc(OC)c1OC
OUTPUT: 1.92

INPUT: Same read-out for COc1cc([C@@H]2c3cc4c(cc3[C@@](O)(C3(O)C5CCCC3CCC5)[C@H]3COC(=O)[C@H]23)OCO4)cc(OC)c1OC (some centres not stated) ?
OUTPUT: 3.81

INPUT: Same read-out for C=C1c2cc3c(cc2[C@@H](c2cc(OC)c(OC)c(OC)c2)[C@@H]2C(=O)OC[C@H]12)OCO3 ?
OUTPUT: 1.89

INPUT: Same read-out for COc1cc([C@@H]2c3cc4c(cc3[C@@](O)(C(O)(c3ccccc3)c3ccccc3)[C@H]3COC(=O)[C@H]23)OCO4)cc(OC)c1OC ?
OUTPUT: 2.72

INPUT: Same read-out for COc1cc([C@@H]2c3cc4c(cc3[C@@](O)(C3(O)CCCCC3)[C@H]3COC(=O)[C@H]23)OCO4)cc(OC)c1OC ?
OUTPUT: 2.93

New cases:
INPUT: // log10 GI50 lookup, key: COc1cc([C@@H]2c3cc4c(cc3[C@](O)(C3(O)CCC3)[C@H]3COC(=O)[C@H]23)OCO4)cc(OC)c1OC
OUTPUT: 2.30

INPUT: Same read-out for COc1cc([C@@H]2c3cc4c(cc3[C@](O)(C3(O)CCCCC3)[C@H]3COC(=O)[C@@H]23)OCO4)cc(OC)c1OC ?
OUTPUT: 3.46

Attribution: ChEMBL document CHEMBL2163197
